System: MB453 cells
Experiment: alamarBlue MB453 cell assay (antiproliferative/cytotoxicity)
Format: cell-based
Conditions: Homo sapiens; MDA MB 453 breast cancer cell line
Readout label: EC50 (nM)
Dear colleague, please return just the value in nM, with no unit written.

*Q* Give a short answer stating reported EC50 for CCc1ncnc(-c2ccnc(C)c2)c1C#Cc1cnc(C)c(NS(=O)(=O)c2cn(C)cn2)c1 [Example 93] .
*A* 149

*Q* Give a short answer stating reported EC50 for COc1ncc(C#Cc2c(C)ncnc2-c2ccc(C)nc2)cc1NS(=O)(=O)c1ccc(F)cc1F [Example 47] .
*A* 29

*Q* Give a short answer stating reported EC50 for CCc1ncnc(-c2ccc(CN)nc2)c1C#Cc1cnc(C)c(NS(=O)(=O)c2ccccc2C(F)(F)F)c1 [Example 105] .
*A* 152

*Q* Give a short answer stating reported EC50 for Cc1ncc(C#Cc2c(C)ncnc2-c2ccccc2)cc1NS(C)(=O)=O [Example 42] .
*A* 1330

Cited source: patent US8466162B2
